All figures here come from the supplement of paper PMC10567573.

B1: ZNF8 (parent)
chain: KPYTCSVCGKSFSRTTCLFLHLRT

- Variants of: B1
- Experimental Details: protein stability index of a GFP-peptide fusion (GPS, HEK-293T) (PSI 1-6); higher = more stable;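 note: lentivirally expressed fusions sorted by FACS into six bins by GFP to DsRed ratio, PSI derived from sequencing read proportions per bin multiplied by bin number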
- Condition Set: c terminus: a fixed tail appended
Decision: protein stability index >= 2 yields label 1, all other cases yield label 0.

For orientation, consider the following solved cases.
[ask] hey, is protein stability index for this one >= 2? `T15L`
[reply] label 1

[ask] hey, is protein stability index for this one >= 2? `K10F`
[reply] label 0

[ask] hey, is protein stability index for this one >= 2? `T24G`
[reply] label 1

---
[ask] hey, is protein stability index for this one >= 2? `K10S`
[reply] label 0

[ask] hey, is protein stability index for this one >= 2? `S6H`
[reply] label 1

[ask] hey, is protein stability index for this one >= 2? `T15D`
[reply] label 1

[ask] hey, is protein stability index for this one >= 2? `C17Y`
[reply] label 1

[ask] hey, is protein stability index for this one >= 2? `T24W`
[reply] label 1

[ask] hey, is protein stability index for this one >= 2? `P2L`
[reply] label 0

[ask] hey, is protein stability index for this one >= 2? `L22W`
[reply] label 0

[ask] hey, is protein stability index for this one >= 2? `T24K`
[reply] label 1

[ask] hey, is protein stability index for this one >= 2? `Y3N`
[reply] label 0

[ask] hey, is protein stability index for this one >= 2? `F19W`
[reply] label 0
